# system.tested: wild-type EGFR (Homo sapiens)
# Sequence (P00533 25-1210): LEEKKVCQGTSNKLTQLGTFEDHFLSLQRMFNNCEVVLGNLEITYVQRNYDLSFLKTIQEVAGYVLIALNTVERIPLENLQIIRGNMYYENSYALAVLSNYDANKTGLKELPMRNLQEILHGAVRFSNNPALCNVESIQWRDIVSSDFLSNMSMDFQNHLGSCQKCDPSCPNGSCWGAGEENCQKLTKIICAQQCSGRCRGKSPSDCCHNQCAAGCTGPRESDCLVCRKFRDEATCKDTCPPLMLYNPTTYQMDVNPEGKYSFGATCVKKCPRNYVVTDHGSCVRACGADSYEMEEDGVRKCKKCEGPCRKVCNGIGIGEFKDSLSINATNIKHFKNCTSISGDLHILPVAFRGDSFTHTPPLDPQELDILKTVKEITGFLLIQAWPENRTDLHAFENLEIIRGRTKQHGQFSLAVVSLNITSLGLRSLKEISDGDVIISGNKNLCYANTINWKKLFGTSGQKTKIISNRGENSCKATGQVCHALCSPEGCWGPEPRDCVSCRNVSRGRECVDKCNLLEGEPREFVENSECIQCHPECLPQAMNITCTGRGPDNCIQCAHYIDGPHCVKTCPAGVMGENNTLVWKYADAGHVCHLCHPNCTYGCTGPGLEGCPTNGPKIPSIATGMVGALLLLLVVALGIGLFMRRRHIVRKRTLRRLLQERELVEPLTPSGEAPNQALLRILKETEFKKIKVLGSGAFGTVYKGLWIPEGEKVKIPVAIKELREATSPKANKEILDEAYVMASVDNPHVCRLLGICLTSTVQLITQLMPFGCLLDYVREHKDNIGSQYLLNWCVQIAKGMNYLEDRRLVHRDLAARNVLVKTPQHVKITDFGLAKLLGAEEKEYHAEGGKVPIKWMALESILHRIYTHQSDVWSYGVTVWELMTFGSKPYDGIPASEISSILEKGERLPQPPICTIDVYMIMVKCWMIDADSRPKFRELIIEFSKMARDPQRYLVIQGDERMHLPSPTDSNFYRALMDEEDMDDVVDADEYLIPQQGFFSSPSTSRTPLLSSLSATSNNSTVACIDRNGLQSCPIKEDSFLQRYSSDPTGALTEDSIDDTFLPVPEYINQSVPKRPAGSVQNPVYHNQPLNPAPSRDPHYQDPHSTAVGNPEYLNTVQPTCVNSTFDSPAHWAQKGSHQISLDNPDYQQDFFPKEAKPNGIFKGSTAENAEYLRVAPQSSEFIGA
# assay.info: cell-based
pIC50: −log10 of the molar value.

chemical.string | pIC50
C=CC(=O)Nc1cc(Nc2nccc(Nc3cc(Cl)c(F)cc3C(C)(C)O)n2)c(OC)cc1N1CC[C@@H](N(C)C)C1 | 7.28

###

# system.tested: wild-type EGFR (Homo sapiens)
# assay.info: In vitro enzymatic assay
# Type: biochemical
pIC50: −log10 of the molar value.
experimental.endpoint: pIC50

compound | system.tested | experimental.endpoint | test.result
C=CC(=O)Nc1cc(Nc2nccc(Nc3cc(Cl)c(F)cc3C(C)(C)O)n2)c(OC)cc1N1CC[C@@H](N(C)C)C1 [sunvozertinib] | wild-type EGFR (Homo sapiens) | pIC50 | 8.62

###

# assay.info: Phase I clinical studies
# Format: in vivo, human
# stated.conditions: human, plasma, po
experimental.endpoint: Tmax

chemical.string | experimental.endpoint | test.result
C=CC(=O)Nc1cc(Nc2nccc(Nc3cc(Cl)c(F)cc3C(C)(C)O)n2)c(OC)cc1N1CC[C@@H](N(C)C)C1 | Tmax | 4 to 7 h

###

# system.tested: BTK (Homo sapiens)
# Sequence (Q06187 whole entry): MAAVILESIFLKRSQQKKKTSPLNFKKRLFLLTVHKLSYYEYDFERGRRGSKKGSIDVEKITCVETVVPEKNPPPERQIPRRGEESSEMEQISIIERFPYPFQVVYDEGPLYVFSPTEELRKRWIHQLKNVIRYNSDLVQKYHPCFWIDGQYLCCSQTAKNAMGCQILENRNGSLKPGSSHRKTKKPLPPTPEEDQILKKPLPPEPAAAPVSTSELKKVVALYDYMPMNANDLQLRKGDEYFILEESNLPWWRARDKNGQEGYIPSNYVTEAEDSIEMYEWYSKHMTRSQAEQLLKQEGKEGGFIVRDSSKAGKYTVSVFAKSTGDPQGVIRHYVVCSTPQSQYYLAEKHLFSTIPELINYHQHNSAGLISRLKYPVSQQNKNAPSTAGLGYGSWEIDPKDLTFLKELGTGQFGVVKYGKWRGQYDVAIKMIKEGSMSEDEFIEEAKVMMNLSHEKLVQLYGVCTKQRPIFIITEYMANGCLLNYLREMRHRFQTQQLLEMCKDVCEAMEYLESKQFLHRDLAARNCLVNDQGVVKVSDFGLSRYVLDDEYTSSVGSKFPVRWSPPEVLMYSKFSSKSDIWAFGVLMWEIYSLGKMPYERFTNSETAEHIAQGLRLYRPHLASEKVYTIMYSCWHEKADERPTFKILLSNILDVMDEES

molecule | IC50
C=CC(=O)Nc1cc(Nc2nccc(Nc3cc(Cl)c(F)cc3C(C)(C)O)n2)c(OC)cc1N1CC[C@@H](N(C)C)C1 [sunvozertinib] | < 250 nM

###

# system.tested: UniProtKB P00533
# assay.info: cell-based

chemical.string | IC50
C=CC(=O)Nc1cc(Nc2nccc(Nc3cc(Cl)c(F)cc3C(C)(C)O)n2)c(OC)cc1N1CC[C@@H](N(C)C)C1 | 58 nM

###

# assay.info: Phase I clinical studies
# Assay type: in vivo, human
# stated.conditions: human, plasma, oral

compound | half-life
C=CC(=O)Nc1cc(Nc2nccc(Nc3cc(Cl)c(F)cc3C(C)(C)O)n2)c(OC)cc1N1CC[C@@H](N(C)C)C1 [sunvozertinib] | ~50 h
